viability, T/C overview
- Test system: 636577-100-R-J1-PDC complex spheroid viability
- Assay method text: Anticancer human tumor 636577-100-R-J1-PDC patient-derived endometrial adenocarcinoma cell line growth inhibition [GQUAD]
- Condition label: second compound 10 µM; first compound 0.316 µM; stronger effect = lower value
Give a bare numeral; the unit % is implied.

Task: Report value: viability, T/C, system: 636577-100-R-J1-PDC complex spheroid viability, compound: COc1ncnc(C2CC2)c1-c1ncc2cnn(Cc3ccc(-c4nc(C(F)(F)F)cn4C(C)C)cc3)c2n1 + Cc1[nH]c2ccc(F)cc2c1-c1nc2c3cccnc3c3ncccc3c2[nH]1
Result: 26.4

Task: Answer briefly: viability, T/C recorded on 636577-100-R-J1-PDC complex spheroid viability for CC(C)n1c(=O)n(C)c2cnc3cc(F)c(-c4ccc(OCCCN5CCCCC5)nc4)cc3c21 + Cc1[nH]c2ccc(F)cc2c1-c1nc2c3cccnc3c3ncccc3c2[nH]1
Result: 85.5

Task: Find the measured viability, T/C of O=C(NO)c1cnc(N2CCN(S(=O)(=O)c3ccc4ccccc4c3)CC2)nc1 + Cc1[nH]c2ccc(F)cc2c1-c1nc2c3cccnc3c3ncccc3c2[nH]1 with 636577-100-R-J1-PDC complex spheroid viability as test system.
Result: 14.3

====

Overview of recorded pIC50 for various compounds
- Test system: 636577-100-R-J1-PDC complex spheroid viability
- Assay method text: Anticancer human tumor 636577-100-R-J1-PDC cell line growth inhibition [GQUAD];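 also: viability read after seven days of drug exposure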
- Condition label: curve of first compound; second compound 0.1 µM
# reply with the number alone; pIC50 is -log10 of concentration in mol/L

// below: answered compounds
# Compound, pIC50
measured = [
    ("COc1ccc([C@@H](O)c2cc(-c3ncnc4cc(N5CCOCC5)ccc34)c(F)cc2Cl)nn1 + CN(C)c1ccc(Nc2c3ccc(NC(=O)CCN4CCCC4)cc3nc3cc(NC(=O)CCN4CCCC4)ccc23)cc1", 6.31),
    ("CC1COCCN1c1cc(C2(O)CC3CCC(C2)O3)c2cnn(-c3ccn[nH]3)c2n1 (stereo unspecified) + CN(C)c1ccc(Nc2c3ccc(NC(=O)CCN4CCCC4)cc3nc3cc(NC(=O)CCN4CCCC4)ccc23)cc1", 7.47),
    ("Cc1[nH]c2ccccc2c1CCNCc1ccc(/C=C/C(=O)NO)cc1 + Cc1[nH]c2ccc(F)cc2c1-c1nc2c3cccnc3c3ncccc3c2[nH]1", 8.37),
    ("CC(C)n1c(=O)n(C)c2cnc3cc(F)c(-c4ccc(OCCCN5CCCCC5)nc4)cc3c21 + Cc1[nH]c2ccc(F)cc2c1-c1nc2c3cccnc3c3ncccc3c2[nH]1", 5.00),
    ("O=C(c1cc(Cc2n[nH]c(=O)c3ccccc23)ccc1F)N1CCN(C(=O)C2CC2)CC1 + Cc1[nH]c2ccc(F)cc2c1-c1nc2c3cccnc3c3ncccc3c2[nH]1", 5.51),
    ("CC[C@@]1(O)C(=O)OCc2c1cc1n(c2=O)Cc2cc3c(CN(C)C)c(O)ccc3nc2-1 + CN(C)c1ccc(Nc2c3ccc(NC(=O)CCN4CCCC4)cc3nc3cc(NC(=O)CCN4CCCC4)ccc23)cc1", 7.73),
]

Note: attention shifts to another entry.
Task: Please give measured pIC50 of the following entry: COc1cc(C2c3cc4c(cc3C(OC3OC5COC(C)OC5C(O)C3O)C3COC(=O)C23)OCO4)cc(OC)c1O (stereo unspecified) + CN(C)c1ccc(Nc2c3ccc(NC(=O)CCN4CCCC4)cc3nc3cc(NC(=O)CCN4CCCC4)ccc23)cc1
Result: 7.33
